- Target of assay: PD-1/PD-L1 interaction (Homo sapiens, UniProt Q9NZQ7)
- Construct: expressed in transfected cells; host or cells: CHO cells (aAPC-PD-L1) co-cultured with Jurkat cells overexpressing PD-1 and an NFAT-luciferase reporter
- Sequence (Q9NZQ7 19-290): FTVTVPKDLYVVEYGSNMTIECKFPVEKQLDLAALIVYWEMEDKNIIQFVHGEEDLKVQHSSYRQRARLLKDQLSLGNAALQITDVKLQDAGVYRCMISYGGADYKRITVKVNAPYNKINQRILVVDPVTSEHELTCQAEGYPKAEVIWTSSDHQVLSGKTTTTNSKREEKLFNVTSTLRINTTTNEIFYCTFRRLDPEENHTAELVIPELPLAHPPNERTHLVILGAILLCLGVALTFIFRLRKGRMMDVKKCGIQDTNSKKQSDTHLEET
- Method description: PD-1/PD-L1 NFAT reporter co-culture assay
- Type: cell-based
- Experimental conditions: Jurkat PD-1 NFAT-luciferase cells co-cultured with aAPC-PD-L1 CHO cells, 6 hrs at 37° C.; read-out: EC50 NFAT Luciferase
Measured attribute: pEC50
pEC50 here: minus log base 10 of the concentration, concentration in moles per litre.

Compound | pEC50
Cc1c(COc2cc(OCc3cncc(C#N)c3)c(CNCCCC(=O)O)cc2Cl)cccc1-c1cccc(COc2cc(OCc3cncc(C#N)c3)c(CNCCCC(=O)O)cc2Cl)c1C | 6.30
COc1nc(-c2cccc(-c3cccc(-c4nc5ccc(CNC[C@@H]6CCC(=O)N6)cn5n4)c3Cl)c2Cl)ccc1CNC[C@@H]1CCC(=O)N1 | 5.64
COc1nc(O[C@H]2CCc3c(-c4cccc(-c5cnc6c(CNC[C@@H]7CCC(=O)N7)cn(C)c6n5)c4Cl)cccc32)c(Cl)cc1CN1CC(C(=O)O)C1 | 6.78
Cc1c(COc2cc(OCc3cncc(C#N)c3)c(CN(C)C)cc2Cl)cccc1-c1cccc(-c2ccc(CN(C)C)nc2)c1C | 5.91
CNC(=O)[C@H](C)NCc1cc(Cl)c(OCc2cccc(-c3cccc(COc4nc(OC)c(CN[C@@H](C)C(=O)NC)cc4Cl)c3C)c2C)nc1OC | 5.38
COc1nc(-c2cccc(-c3cccc4c3CC[C@@H]4Oc3nc(OC)c(CNC[C@@H]4CCC(=O)N4)cc3Br)c2Br)ccc1CNC[C@@H]1CCC(=O)N1 | 6.82
Cc1c(COc2cc(OCc3cncc(C#N)c3)c(CNCCO)cc2Cl)cccc1-c1cccc(-c2ccc(C3CCCN3)cc2)c1C (stereo not shown) | 6.38
Cc1c(COc2cc(OCc3cncc(C#N)c3)c(CNCCO)cc2Cl)cccc1-c1cccc(COc2cc(OCc3cncc(C#N)c3)c(CNCCO)cc2Cl)c1Br | 6.83

Lookup: Identify measured pEC50 corresponding to Cc1c(COc2cc(OCc3cncc(C#N)c3)c(CNC[C@H](O)C(=O)O)cc2Cl)cccc1-c1cccc(COc2cc(OCc3cncc(C#N)c3)c(CNC[C@H](O)C(=O)O)cc2Cl)c1C
Found: 6.74

Lookup: Identify measured pEC50 corresponding to COc1nc(O[C@H]2CCc3c(-c4cccc(-c5ccc(CNC[C@@H]6CCC(=O)N6)cc5)c4Cl)cccc32)c(Cl)cc1CN1CC[C@H](C(=O)O)C1
Found: 7.39

Lookup: Identify measured pEC50 corresponding to Cc1c(COc2cc(OCc3cncc(C#N)c3)c(CNC[C@@H](O)CC(=O)O)cc2Cl)cccc1-c1cccc(-n2cc(CN3CCCC3)nn2)c1C
Found: 5.59

Lookup: Identify measured pEC50 corresponding to COc1cc(OCc2cccc(-c3cccc(COc4cc(OC)c(CNC[C@@H](O)CC(=O)O)cc4C#N)c3C)c2C)c(C#N)cc1CNC[C@@H](O)CC(=O)O
Found: 6.89

Lookup: Identify measured pEC50 corresponding to N#Cc1cncc(COc2cc(OCc3cccc(-c4cccc(COc5cc(OCc6cncc(C#N)c6)c(CNCCO)cc5Cl)c4)c3)c(Cl)cc2CNCCO)c1
Found: 5.42

Lookup: Identify measured pEC50 corresponding to COc1nc(-c2cccc(-c3cccc4c3CC[C@@H]4Oc3nc(OCc4cncc(C#N)c4)c(CNC(C)(C)C(=O)O)cc3Cl)c2Br)ccc1C1=NCCN1
Found: 5.52

Lookup: Identify measured pEC50 corresponding to Cc1c(COc2cc(OCc3cncc(C#N)c3)c(CNC[C@@H](O)CC(=O)O)cc2Cl)cccc1-c1cccc(-c2ccc(OCCNC[C@@H](O)CC(=O)O)c(C(N)=O)c2)c1C
Found: 7.01

Lookup: Identify measured pEC50 corresponding to Cc1c(COc2cc(OCc3cncc(C#N)c3)c(CN[C@@](C)(CO)C(=O)O)cc2Cl)cccc1-c1cccc(-c2ccc3c(cnn3CCN3CC[C@@H](O)C3)n2)c1C
Found: 6.93

Lookup: Identify measured pEC50 corresponding to C[C@@](CO)(NCc1cc(Cl)c(O[C@H]2CCc3c(-c4cccc(-c5ccc(C6=NCCN6)cc5)c4Cl)cccc32)nc1OCc1cncc(C#N)c1)C(=O)O
Found: 7.14

Lookup: Identify measured pEC50 corresponding to COc1nc(OCc2cccc(-c3cccc(COc4ccc(CNC[C@H](O)CC(=O)O)c(OC)n4)c3Cl)c2Cl)ccc1CNC[C@H](O)CC(=O)O
Found: 5.81

Lookup: Identify measured pEC50 corresponding to CNC(=O)COc1cc(-c2cccc(-c3cccc(COc4cc(OCc5cncc(C#N)c5)c(CNC[C@@H](O)CC(=O)O)cc4Cl)c3C)c2C)ccc1C1=NCCN1
Found: 6.26

Lookup: Identify measured pEC50 corresponding to COc1nc(OCc2cccc(-c3cccc(COc4nc(OC)c(CN[C@@H]5CCC[C@@H]5O)cc4Cl)c3C)c2C)c(Cl)cc1CN[C@@H]1CCC[C@@H]1O
Found: 6.21

Lookup: Identify measured pEC50 corresponding to COc1nc(O[C@H]2CCc3c(-c4cccc(-c5cnc(CNC[C@@H]6CCC(=O)N6)c(OC)n5)c4Cl)cccc32)c(Cl)cc1CN[C@@](C)(CO)C(=O)O
Found: 7.54

The reported measurements were obtained from patent US12590062B2.
